assay-protocol: Inhibition of Plasmodium falciparum falcipain-3 expressed in Escherichia coli
Field 'label' (enum: 1 (yes) / 0 (no)). Set to 1 (yes) when IC50 is strictly under 60 nM; else 0 (no).

molecule=CC(C)CN(NC(=O)OC(C)(C)C)c1cccc(C#N)n1 class="0 (no)"

Confirm or reject: IC50 of CN1CCN(Cc2ccc(C(=O)NN(CC(C)(C)C)c3nc(C#N)ncc3Br)cc2)CC1 lies strictly below 60 nM
0 (no)

Lab log: compare recorded IC50 with 60 nM; is it strictly lower for CC(C)(C)OC(=O)NN(CC1CCCO1)c1nc(C#N)ncc1Br (configuration not stated) ?
0 (no)

hey, is IC50 for CN1CCN(Cc2ccc(C(=O)NN(c3nc(C#N)ncc3Br)C3CCCC3(C)C)cc2)CC1 (configuration not stated) lower than 60 nM or not?
0 (no)

Please state whether IC50 is below 60 nM for CCC(CC)CN(NC(=O)c1ccc(CN2CCN(C)CC2)cc1)c1nc(C#N)ncc1Br
1 (yes)

Dear colleague, could you confirm whether IC50 of CC(C)CN(NC(=O)c1ccnc2ccccc12)c1nc(C#N)ncc1Cl falls below 60 nM? Thanks.
1 (yes)

Check if IC50 falls below 60 nM for CC(C)CN(NC(=O)c1ccc(N2CCN(C)CC2)cc1)c1nc(C#N)ncc1Br .
1 (yes)

----------
assay-protocol: Inhibition of Plasmodium falciparum falcipain-3 expressed in Escherichia coli
endpoint-label: IC50
Field note: include the unit after the figure.

smiles_entry=CC(C)CN(NC(=O)c1ncoc1-c1ccccc1)c1nc(C#N)ncc1Br reported_measurement="94 nM"
smiles_entry=CC(C)(C)OC(=O)NN(c1nc(C#N)ncc1Br)C1CCN(C(=O)OCc2ccccc2)CC1 reported_measurement="38 nM"
smiles_entry=CC(C)(C)OC(=O)NN(c1nc(C#N)ncc1Br)C1CCN(C(=O)OC(C)(C)C)CC1 reported_measurement="135 nM"

// switching to the query molecule
Answer with reported IC50 of Cc1nc(-c2ccc(C(F)(F)F)cc2)sc1C(=O)NN(CC(C)C)c1nc(C#N)ncc1Cl
1540 nM

----------
assay-protocol: Inhibition of Plasmodium falciparum falcipain-3 expressed in Escherichia coli
Values of IC50 strictly less than 400 nM map to t, and values of at least 400 nM map to f.

smiles_entry=CC(C)CN(NC(=O)C1(c2ccccc2)CC1)c1nc(C#N)ncc1Br class=t

is_below(IC50, 400 nM) for CC(C)CN(NC(=O)c1ccc2occc2c1)c1nc(C#N)ncc1Br ?
t

For CC(C)CN(NC(=O)Cc1ccc(F)cc1)c1nc(C#N)ncc1Br , is the recorded IC50 below the cut-off of 400 nM?
t

Consider the compound CN1CCN(Cc2ccc(C(=O)NN(CCc3ccccc3)c3nc(C#N)ncc3Br)cc2)CC1 . Is its IC50 strictly less than 400 nM?
t

Strictly below 400 nM: is that where IC50 of CC(C)CN(NC(=O)C1(c2ccc(Cl)cc2)CCC1)c1nc(C#N)ncc1Br sits?
t

Lab note: IC50 threshold 400 nM. Does this compound come in strictly under it? CCC(CC)N(NC(=O)c1ccc(CN2CCN(C)CC2)cc1)c1nc(C#N)ncc1Br
f

Bench note: check whether CC(C)CN(NC(=O)OC(C)(C)C)c1cc(C#N)ncn1 shows IC50 below 400 nM
f

Is IC50 of Cc1cnc(C#N)nc1N(CC(C)C)NC(=O)OC(C)(C)C strictly below 400 nM?
f
